B1: Osa-1-4 twister ribozyme (parent)
chain: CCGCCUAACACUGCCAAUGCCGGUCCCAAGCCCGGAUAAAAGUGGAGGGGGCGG

# Variants of: B1
# ASSAY_EXPLANATION: self-cleavage, relative activity (ratio to wild type); higher = more cleavage; co-transcriptional
Assign Y to entries whose self-cleavage meets or exceeds 0.1; assign N to the rest.

Examples from the recorded data:
{"columns": ["MUTANT_LABEL", "LABEL_VALUE"],
 "data": [
  ["A40G C9U", "Y"],
  ["A8C C31G", "N"],
  ["C31G G30A", "N"],
  ["G48C U24C", "N"],
  ["G42C U37A", "Y"]
]}

Please indicate if the recorded self-cleavage for G30C G42U meets or exceeds 0.1.
N

Say whether C20A G49C shows self-cleavage of 0.1 or more.
N

Exam item: decide whether the reported self-cleavage for A10G C26U is at least 0.1.
Y

Record G23C U24G ; criterion: self-cleavage no lower than 0.1. Met?
N
